Reference for the values: patent US12109197B2

- Measurement notes: Multiple-dose study of sulopenem delivered intravenously: plasma pharmacokinetics
- Assay type: in vivo, human
- Experimental context: human, plasma, iv, 800 mg, intravenous 800 mg (3 h BID); Day 14
Experimental endpoint: Cmax (ng/mL)
Your answer is read as ng/mL, so omit the unit and give the number.

Can you share its Cmax? I mean this compound: C[C@@H](O)[C@H]1C(=O)N2C(C(=O)O)=C(S[C@H]3CC[S@@+]([O-])C3)S[C@H]12
8970

* * *

- Measurement notes: Multiple-dose study of sulopenem delivered intravenously: plasma pharmacokinetics
- Format: in vivo, human
- Experimental context: human, plasma, iv, 1200 mg, intravenous 1200 mg (1 h BID); Day 14
Experimental endpoint: CL renal (mL/min)
Expressed in mL/min, but write only the number.

Tell me the measured CL renal of C[C@@H](O)[C@H]1C(=O)N2C(C(=O)O)=C(S[C@H]3CC[S@@+]([O-])C3)S[C@H]12 [sulopenem] , please.
245

* * *

- Measurement notes: Multiple-dose study of sulopenem delivered intravenously: plasma pharmacokinetics
- Format: in vivo, human
- Experimental context: human, plasma, iv, 1600 mg, intravenous 1600 mg (1.5 h BID); Day 1
Experimental endpoint: half-life (min)
Numeric answer only, unit min assumed.

What half-life value was documented for this compound, C[C@@H](O)[C@H]1C(=O)N2C(C(=O)O)=C(S[C@H]3CC[S@@+]([O-])C3)S[C@H]12 ?
62.4

* * *

- Measurement notes: Multiple-dose study of sulopenem delivered intravenously: plasma pharmacokinetics
- Type: in vivo, human
- Experimental context: human, plasma, iv, 1200 mg, intravenous 1200 mg ([…] BID); Day 1
Experimental endpoint: Cmax (ng/mL)
Please give a number only; it is taken to be in ng/mL.

Cmax for C[C@@H](O)[C@H]1C(=O)N2C(C(=O)O)=C(S[C@H]3CC[S@@+]([O-])C3)S[C@H]12 ?
16600

* * *

- Measurement notes: Multiple-dose study of sulopenem delivered intravenously: plasma pharmacokinetics
- Type: in vivo, human
- Experimental context: human, plasma, iv, 800 mg, intravenous 800 mg (3 h BID); Day 14; median [range]
Experimental endpoint: Tmax (h)
Write the answer as a number in h, unit excluded.

Quick one: Tmax of C[C@@H](O)[C@H]1C(=O)N2C(C(=O)O)=C(S[C@H]3CC[S@@+]([O-])C3)S[C@H]12 ?
2

* * *

- Measurement notes: Multiple-dose study of sulopenem delivered intravenously: plasma pharmacokinetics
- Assay type: in vivo, human
- Experimental context: human, plasma, iv, 1200 mg, intravenous 1200 mg (1 h BID); Day 1
Experimental endpoint: AUC(0-inf) (ng·h/mL)
# unit: ng·h/mL | format: bare number

Request the reported AUC(0-inf) associated with C[C@@H](O)[C@H]1C(=O)N2C(C(=O)O)=C(S[C@H]3CC[S@@+]([O-])C3)S[C@H]12
42300

* * *

- Measurement notes: Multiple-dose study of sulopenem delivered intravenously: plasma pharmacokinetics
- Assay type: in vivo, human
- Experimental context: human, plasma, iv, 1200 mg, intravenous 1200 mg ([…] BID); Day 1
Experimental endpoint: AUC(0-inf) (ng·h/mL)
Your answer is read as ng·h/mL, so omit the unit and give the number.

AUC(0-inf) lookup needed for C[C@@H](O)[C@H]1C(=O)N2C(C(=O)O)=C(S[C@H]3CC[S@@+]([O-])C3)S[C@H]12 [sulopenem] , thanks.
41900
